target: Trypsin (Homo sapiens, UniProt P07477)
MEASURE: pIC50
pIC50 field: float, defined as -log10 of concentration (mol/L).

stdin: Tell me the measured pIC50 of CC(=O)N[C@@H](CCC(=O)O)C(=O)NCC(=O)N[C@@H](CCCN=C(N)N)B(O)O , please.
stdout: 7.98

* * *

biological target: UniProt P00747
Sequence (P00747 97-810): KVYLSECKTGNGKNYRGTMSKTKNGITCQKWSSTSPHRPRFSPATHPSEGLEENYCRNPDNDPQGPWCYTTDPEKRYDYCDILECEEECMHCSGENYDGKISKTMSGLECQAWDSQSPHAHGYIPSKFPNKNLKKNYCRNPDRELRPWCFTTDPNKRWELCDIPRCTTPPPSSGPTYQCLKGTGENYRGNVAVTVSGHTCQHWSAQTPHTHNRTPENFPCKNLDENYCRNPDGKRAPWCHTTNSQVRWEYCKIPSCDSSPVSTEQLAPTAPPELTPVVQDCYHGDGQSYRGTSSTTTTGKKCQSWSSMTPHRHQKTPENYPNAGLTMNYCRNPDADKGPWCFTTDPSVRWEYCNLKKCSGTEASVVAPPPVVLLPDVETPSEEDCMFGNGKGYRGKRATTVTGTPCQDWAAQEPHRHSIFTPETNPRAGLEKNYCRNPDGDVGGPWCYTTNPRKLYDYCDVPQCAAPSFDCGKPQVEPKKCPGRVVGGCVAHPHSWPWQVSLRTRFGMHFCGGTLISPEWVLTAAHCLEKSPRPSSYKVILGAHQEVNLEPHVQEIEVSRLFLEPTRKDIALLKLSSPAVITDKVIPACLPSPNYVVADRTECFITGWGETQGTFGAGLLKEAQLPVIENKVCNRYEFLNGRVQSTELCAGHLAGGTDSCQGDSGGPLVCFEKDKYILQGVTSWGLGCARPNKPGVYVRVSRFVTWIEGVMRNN
IC50: recorded values
Hi! Could you send only the number? It should be in nM, unit omitted.

INSERT INTO assay_data (molecule, assay_target, reported_measurement) VALUES
  ('CC(=O)N[C@@H](CCC(=O)O)C(=O)NCC(=O)N[C@@H](CCCN=C(N)N)B(O)O [OBE2002, Acetyl-Glu-Gly-BoroArg]', 'UniProt P00747', 3800);

Consider the record given below.
stdin: Looking for the measured IC50 of CC(=O)N[C@@H](C)C(=O)N[C@@H](Cc1ccccc1)C(=O)N[C@@H](CCCNC(=N)N)B1OC2C[C@@H]3C[C@@H](C3(C)C)[C@]2(C)O1 (some centres unmarked) [OBE2001] , can you help?
stdout: 21.7

* * *

molecular target: Kallikrein (Homo sapiens)
Sequence (P03952 20-638): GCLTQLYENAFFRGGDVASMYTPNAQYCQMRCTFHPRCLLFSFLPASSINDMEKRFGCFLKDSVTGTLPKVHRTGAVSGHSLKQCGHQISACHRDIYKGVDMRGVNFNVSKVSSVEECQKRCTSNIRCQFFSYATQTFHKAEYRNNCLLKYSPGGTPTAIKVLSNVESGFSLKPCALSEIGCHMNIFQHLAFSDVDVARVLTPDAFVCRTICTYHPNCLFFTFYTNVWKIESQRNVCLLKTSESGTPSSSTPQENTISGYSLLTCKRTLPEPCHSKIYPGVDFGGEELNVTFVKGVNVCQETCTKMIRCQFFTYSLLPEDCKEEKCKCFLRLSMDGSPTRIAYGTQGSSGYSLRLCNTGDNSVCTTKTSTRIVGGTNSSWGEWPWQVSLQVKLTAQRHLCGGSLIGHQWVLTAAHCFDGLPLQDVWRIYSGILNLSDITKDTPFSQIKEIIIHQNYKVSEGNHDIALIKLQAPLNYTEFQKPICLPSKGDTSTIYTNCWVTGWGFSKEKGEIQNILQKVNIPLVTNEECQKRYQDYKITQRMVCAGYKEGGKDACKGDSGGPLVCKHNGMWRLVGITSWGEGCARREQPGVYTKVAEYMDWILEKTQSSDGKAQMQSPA
MEASURE: pIC50
Give only the number. pIC50 is defined as minus log10 of concentration in molar units.

INSERT INTO assay_data (compound, measure, reported_measurement) VALUES
  ('CC(=O)N[C@@H](CCC(=O)O)C(=O)NCC(=O)N[C@@H](CCCN=C(N)N)B(O)O', 'pIC50', 7.09);

stdin: Item under review: CC(=O)N[C@@H](C)C(=O)N[C@@H](Cc1ccccc1)C(=O)N[C@@H](CCCNC(=N)N)B1OC2C[C@@H]3C[C@@H](C3(C)C)[C@]2(C)O1 (some centres unmarked) . Reported pIC50?
stdout: 8.16

* * *

target: Enteropeptidase (Homo sapiens, UniProt P98073); test: Enteropeptidase assay (Np Tosyl Gly Pro Arg pNa substrate, absorbance 405 nm); type: biochemical; design: purchased RD system 1585SE; details: in vitro, 30 min preincubation at RT
Sequence (P98073 785-1019 limits assumed): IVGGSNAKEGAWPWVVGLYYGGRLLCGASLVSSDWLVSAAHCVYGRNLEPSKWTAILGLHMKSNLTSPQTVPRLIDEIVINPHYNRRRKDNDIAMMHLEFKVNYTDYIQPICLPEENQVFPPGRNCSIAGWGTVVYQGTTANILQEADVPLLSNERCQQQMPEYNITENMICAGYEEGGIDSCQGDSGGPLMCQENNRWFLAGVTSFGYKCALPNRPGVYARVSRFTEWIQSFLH
Sequence (P98073 2-784 partner limits assumed): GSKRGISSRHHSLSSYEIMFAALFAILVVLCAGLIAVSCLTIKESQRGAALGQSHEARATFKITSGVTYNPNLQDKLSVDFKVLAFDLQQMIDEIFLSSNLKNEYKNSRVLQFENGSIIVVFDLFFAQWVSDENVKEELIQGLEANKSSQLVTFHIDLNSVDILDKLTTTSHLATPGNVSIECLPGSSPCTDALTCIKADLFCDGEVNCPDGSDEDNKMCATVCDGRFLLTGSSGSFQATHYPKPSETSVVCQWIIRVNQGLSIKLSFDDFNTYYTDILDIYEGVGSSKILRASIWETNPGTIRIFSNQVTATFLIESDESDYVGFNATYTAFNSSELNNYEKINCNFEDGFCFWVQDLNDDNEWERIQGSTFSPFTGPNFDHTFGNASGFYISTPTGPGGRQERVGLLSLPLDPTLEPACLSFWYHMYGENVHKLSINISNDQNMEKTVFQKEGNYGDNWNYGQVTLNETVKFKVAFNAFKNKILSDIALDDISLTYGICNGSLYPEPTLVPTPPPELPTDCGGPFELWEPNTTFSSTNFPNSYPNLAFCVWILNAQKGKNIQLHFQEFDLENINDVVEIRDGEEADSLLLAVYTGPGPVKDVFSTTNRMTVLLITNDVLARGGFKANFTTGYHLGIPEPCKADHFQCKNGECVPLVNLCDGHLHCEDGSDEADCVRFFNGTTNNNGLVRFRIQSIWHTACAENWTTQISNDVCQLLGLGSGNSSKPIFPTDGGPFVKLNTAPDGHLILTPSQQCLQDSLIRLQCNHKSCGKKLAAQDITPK
MEASURE: IC50 (nM)
Report as a plain number; the unit nM is understood.

stdin: # returns recorded IC50 (system: Enteropeptidase (Homo sapiens, UniProt P98073)) for C[C@H](N)C(=O)N[C@@H](Cc1ccccc1)C(=O)N[C@@H](CCCNC(=N)N)B1OC2C[C@@H]3C[C@@H](C3(C)C)[C@]2(C)O1 (stereo partly shown)
stdout: 33
